Reported %Inh is given for each of the following compounds.
tested on: IRAK3; conditions: concentration: 1 μM, replicates: in singlicate; n = 1;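 further: KINOMEscan kinase panel screen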

COMPOUND	READING UNIT	%Inh
Nc1n[nH]c2nnc(-c3ccccc3)cc12 [SB-517389]	%	0
CCCc1ccc(S(=O)(=O)NC2CCN(c3ccnc(Nc4ccc(OC)cc4)n3)C2)cc1 (stereo not shown) [GSK1379737]	%	0
COc1cc2ncnc(Nc3ccc(OCc4ccccc4Br)c(Cl)c3)c2cc1OC.Cl [GI261590]	%	13
COc1ccc(-c2nc3n(c2-c2ccncc2)CCC3)cc1 [SKF-104493]	%	0
CS(=O)(=O)CCNCc1ccc(-c2ccc3ncnc(Nc4ccc(OCc5ccccc5)c(Cl)c4)c3c2)o1.Cl [GW574783]	%	12
Cn1ccc2ncnc(Nc3ccc(Oc4cccc(Cl)c4)c(Cl)c3)c21	%	6
CC(C)N1CCC(n2cnc(-c3ccc(F)cc3)c2-c2ccnc(N)n2)CC1 [SB-223132]	%	23
Fc1cccc(COc2ccc(Nc3ncnc4nn5ccccc5c34)cc2Cl)c1 [GW689066]	%	0
Cl.O=S(=O)(c1cccc(F)c1)c1ccc(Nc2ncnc3cc(Br)sc23)cc1Cl [GSK306886]	%	0
Clc1cc(Nc2ncnc3cc[nH]c23)ccc1OCc1ccccn1	%	19
Nc1nc(-c2ccc3c(N)n[nH]c3c2)cc(N2CCC[C@@H](C(=O)Nc3ccccc3)C2)n1.O=C(O)C(F)(F)F.O=C(O)C(F)(F)F [GSK2288359]	%	0
Clc1cccc(-c2nc(Nc3ccncc3)c3ccccc3n2)c1 [GW873004]	%	9
C[C@@H]1CCN(C(=O)CO)C[C@@H]1N(C)c1ncnc2[nH]ccc12	%	19
Nc1nc(-c2ccccn2)c(-c2ccnc3ccccc23)s1 [GW548057]	%	0
Cl.Cl.c1ccc(-c2cc3ccncc3cc2OC2CCNCC2)cc1 [GSK1122999]	%	24
CC(C)(C)c1ccc(-n2cnc3c(N)ncnc32)cc1 [SKF-97263]	%	7
COc1ccc(NC(=O)c2ccc(-c3cc(-c4nnc(C)o4)ccc3C)cc2)cc1 [GW595885]	%	0
COc1ccc(-c2oc3ncnc(N)c3c2-c2ccc(OC)cc2)cc1 [SB-589132]	%	15
O=c1cc(N2CCOCC2)nc2n(Cc3cccc(Cl)c3)ccn12 [GSK2296823]	%	32
